Recorded inhibition at 0.01 µM, one value per entry.
System: PC12 cells
Test description: KCN-induced necrosis of PC12 cells, LDH release
Assay type: cell-based, rat
Run conditions: Rattus norvegicus, PC-12, 5 h, 10 nM; KCN, PC12, LDH release (Table 5); read-out: % protection At 10 nM
Observable: inhibition at 0.01 µM (%)

[[record]]
molecule = "O=C(O)c1nc2ncccn2n1"
observable = "inhibition at 0.01 µM"
unit_of_measure = "%"
result_value = 21

[[record]]
molecule = "O=c1oc(-c2ccco2)nc2sc3c(c12)CCCC3"
observable = "inhibition at 0.01 µM"
unit_of_measure = "%"
result_value = 55

[[record]]
molecule = "CC(=O)Oc1ccc2nc(-c3cccc(Br)c3)oc(=O)c2c1"
observable = "inhibition at 0.01 µM"
unit_of_measure = "%"
result_value = 28

[[record]]
molecule = "CC(=O)Nc1nc(SCCC(=O)O)n[nH]1"
observable = "inhibition at 0.01 µM"
unit_of_measure = "%"
result_value = 30

[[record]]
molecule = "Cn1c(=O)[nH]c(=O)c2[nH]c(N3CCCCC3)nc21"
observable = "inhibition at 0.01 µM"
unit_of_measure = "%"
result_value = 43

[[record]]
molecule = "O=C(O)c1cccc(S(=O)(=O)N2CCCC2)c1"
observable = "inhibition at 0.01 µM"
unit_of_measure = "%"
result_value = 18

[[record]]
molecule = "CCn1c2ccccc2c2nnc(NCc3ccccn3)nc21"
observable = "inhibition at 0.01 µM"
unit_of_measure = "%"
result_value = 18

[[record]]
molecule = "CCN1CCN(c2c(C)c(C)nc3ncnn23)CC1"
observable = "inhibition at 0.01 µM"
unit_of_measure = "%"
result_value = 54

[[record]]
molecule = "O=C(c1ccco1)N1CCN=C1N1CCCC1"
observable = "inhibition at 0.01 µM"
unit_of_measure = "%"
result_value = 37

[[record]]
molecule = "O=C(c1csc(N2CCCCC2)n1)N1CCCC1"
observable = "inhibition at 0.01 µM"
unit_of_measure = "%"
result_value = 61

[[record]]
molecule = "Cn1c(-c2c(C(C)(C)C)oc3cc(OC(=O)C(C)(C)C)ccc3c2=O)nc2ccccc21"
observable = "inhibition at 0.01 µM"
unit_of_measure = "%"
result_value = 36

[[record]]
molecule = "CN(C)c1ccc(Nc2nc(-c3ccc(Cl)cc3)cs2)cc1"
observable = "inhibition at 0.01 µM"
unit_of_measure = "%"
result_value = 55

[[record]]
molecule = "CC1Cc2ccccc2N1S(=O)(=O)c1ccc(C(=O)O)cc1 (stereo not drawn)"
observable = "inhibition at 0.01 µM"
unit_of_measure = "%"
result_value = 47

[[record]]
molecule = "CNC(=O)c1n[nH]c2c1CCCCCC2"
observable = "inhibition at 0.01 µM"
unit_of_measure = "%"
result_value = 40

[[record]]
molecule = "O=S1(=O)N=C(NCCN2CCCC2)C(NCCN2CCCC2)=N1"
observable = "inhibition at 0.01 µM"
unit_of_measure = "%"
result_value = 25

[[record]]
molecule = "Cc1[nH]c(=O)[nH]c(=O)c1S(=O)(=O)N1CCCCC1C (stereo not drawn)"
observable = "inhibition at 0.01 µM"
unit_of_measure = "%"
result_value = 39

[[record]]
molecule = "CC(C)N1CCN(C(=O)CN2C(=O)C3CCCN3C(=O)c3cc(F)ccc32)CC1 (stereo not drawn)"
observable = "inhibition at 0.01 µM"
unit_of_measure = "%"
result_value = 82

[[record]]
molecule = "CCOC(=O)CN1C(=O)c2ccccc2S1(=O)=O"
observable = "inhibition at 0.01 µM"
unit_of_measure = "%"
result_value = 35

[[record]]
molecule = "COc1cc(OC)cc(-c2nc3ccc(Br)cc3c(=O)o2)c1"
observable = "inhibition at 0.01 µM"
unit_of_measure = "%"
result_value = 38

[[record]]
molecule = "O=C(O)Cn1nnc(-c2ccncc2)n1"
observable = "inhibition at 0.01 µM"
unit_of_measure = "%"
result_value = 54

[[record]]
molecule = "Cc1ccnc(Nc2nc(-c3cc(C)c(C)cc3C)cs2)c1"
observable = "inhibition at 0.01 µM"
unit_of_measure = "%"
result_value = 38

